The reader will find reported pEC50 values listed item by item below.
# target.entity: human GLP-1 (Homo sapiens)
# Construct: expressed in transfected cells
# Sequence (P43220 24-463): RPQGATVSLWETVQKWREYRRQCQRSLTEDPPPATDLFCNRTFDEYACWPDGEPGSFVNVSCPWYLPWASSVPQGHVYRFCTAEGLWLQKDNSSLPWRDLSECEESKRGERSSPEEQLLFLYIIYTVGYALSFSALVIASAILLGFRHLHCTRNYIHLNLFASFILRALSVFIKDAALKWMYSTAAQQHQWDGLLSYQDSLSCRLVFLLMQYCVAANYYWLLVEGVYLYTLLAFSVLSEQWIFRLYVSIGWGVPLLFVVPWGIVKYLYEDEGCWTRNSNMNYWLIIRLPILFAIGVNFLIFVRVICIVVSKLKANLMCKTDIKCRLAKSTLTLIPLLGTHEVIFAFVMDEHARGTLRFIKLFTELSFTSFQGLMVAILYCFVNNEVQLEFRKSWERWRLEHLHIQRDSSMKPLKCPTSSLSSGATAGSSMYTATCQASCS
# procedure.text: h-GLP-1 activity assay (Cisbio cAMP Gs dynamic kit, HTRF)
# Type: cell-based
# condition.parameters: HEK293 cells with stable expression of human GLP-1, relative EC50, 10 nM human GLP-1 = 100% response
pEC50: −log10 of the molar value.

Recorded results for 2 compounds are shown here.
O=C(O)c1ccc2nc(Cc3ccc(-c4cccc5c4NC(=O)C(c4ccc(Cl)cc4F)O5)cc3)n(C[C@@H]3CCO3)c2c1 (mixture of isomers) [Compound 42] : < 7.00
C[C@]1(c2ccc(Cl)cc2F)Oc2cccc(C3=CC[C@H](Cc4nc5ccc(C(=O)O)cc5n4C[C@@H]4CCO4)OC3)c2O1 (single isomer, unassigned) [Compound 107] : < 7.00

// fetch human GLP-1 (Homo sapiens) pEC50 for C[C@@]1(c2ccc(Cl)cc2F)Oc2cccc(C3=CC[C@H](Cc4nc5ccc(C(=O)O)cc5n4C[C@@H]4CCO4)OC3)c2O1 (single isomer, unassigned) [Compound 106]
< 7.00

These data points were gathered from patent US20220348564A1.
